- Test system: FaDu
- protocolText: mitochondrial oxygen consumption rate normalised to cell number, Z score over the library; higher = higher oxygen consumption (negative = OCR reduction)
- experimentalSetup: treatment time 24 h; assay medium: 5 mM galactose, 5 mM pyruvate, 4 mM glutamine; 10 µM
Structures can show the parent of a compound that is named as a salt. Whole data set: some 1,600 compounds, median “mitochondrial oxygen consumption rate normalised to cell number, Z score over the library” near 0.065, cut for the lowest 2% near -2.2. Many of the other results were omitted from the sample, so the lowest values are more common in it than they were.
Classification field: enter 1 for mitochondrial oxygen consumption rate normalised values not below 1, -1 for values below it.

compound	labelValue
O=C(CCBr)N1CCN(C(=O)CCBr)CC1	1
COc1cc(NS(=O)(=O)c2ccc(N)cc2)ncn1	-1
NC(=O)CCCCC1CCSS1 (stereo unspecified)	1
Oc1c(Cl)cc(Cl)c(Cl)c1Cc1c(O)c(Cl)cc(Cl)c1Cl	-1
O=C(c1ccc(OCCN2CCCCC2)cc1)c1c(-c2ccc(O)cc2)sc2cc(O)ccc12 [Raloxifene HCl]	-1
Oc1c(Cl)cc(Cl)cc1Sc1cc(Cl)cc(Cl)c1O	1
